src = patent US20250215072A1

subjectOfTest: T1, human LRRC33-proTGFβ1 complex (human, UniProt P01137 30-390; Q86YC3 19-650)
T1 construct: also called hLRRC33-proTGFβ1; hLRRC33
protocolDetails: MSD-SET, hIgG4
valueKind: Kd (pM)
One number for each entry, in pM.

Ab24 (antibody, IgG4, V domains shown) VH: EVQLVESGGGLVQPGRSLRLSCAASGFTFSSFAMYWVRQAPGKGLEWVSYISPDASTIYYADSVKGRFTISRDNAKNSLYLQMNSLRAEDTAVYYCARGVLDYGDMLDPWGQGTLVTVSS VL: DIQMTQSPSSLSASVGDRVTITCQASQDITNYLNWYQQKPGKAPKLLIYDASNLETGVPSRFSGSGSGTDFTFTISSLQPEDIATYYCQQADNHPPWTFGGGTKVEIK :: 180

As a next step, examine the binder that follows.
Would you kindly share the measured Kd for Ab22 (antibody, IgG4, V domains shown) VH: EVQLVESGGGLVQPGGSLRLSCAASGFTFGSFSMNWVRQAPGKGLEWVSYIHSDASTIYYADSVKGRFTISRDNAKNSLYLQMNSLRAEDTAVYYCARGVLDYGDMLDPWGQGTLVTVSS VL: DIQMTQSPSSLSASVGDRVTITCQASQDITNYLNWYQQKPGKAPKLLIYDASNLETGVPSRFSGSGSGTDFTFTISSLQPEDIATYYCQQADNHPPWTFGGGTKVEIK ?
200
